# MEASURED_ON: T1, human PD-L1-his tag protein (human, UniProt Q9NZQ7 19-238)
# T1 construct: also called human PD-L1-His protein; recombinant PD-L1 protein; not shown: his tag
# MEASUREMENT_PROTOCOL: SPR (Biacore), affinity ranking, PDL1-His
MEASURED_METRIC: koff (s⁻¹)
Numeric answer only, unit s⁻¹ assumed.

Problem: koff lookup needed for Hu89C10H8-8 (antibody, V domains shown, humanized) VH: EVQLVESGGGLVKPGGSLRLSCAASGFTFSNYWMTWIRQAPGKGLEWVASITNTGSSTFYPDSVKGRFTISRDNAKSSLYLQMNSLRAEDTAVYYCTRDTTIAPFDYWGQGTMVTVSS VL: DIQMTQSPSSLSASVGDRVTITCKASQNLNEYLNWYQQKPGKAPKRLIYKTNTLQAGIPSRFSGSGSGTDYTLTISSLQPEDFATYYCSQYNSGNTFGQGTKLEIK , thanks.
Solution: 6.66e-05

Problem: koff lookup needed for Hu89C10H8-15 (antibody, V domains shown, humanized) VH: EVQLVESGGGLVKPGGSLRLSCAASGFTFSNYWMTWIRQAPGKGLEWVASITNTGSSTFYPDSVKGRFTISRDNAKNSLYLQMNSLRAEDTAVYYCTRDTTIAPFDYWGQGTMVTVSS VL: DIQMTQSPSSLSASVGDRVTITCKASQNLNEYLNWYQQKLGEAPKRLIYKTNTLQAGIPSRFSGSGSGIDYTLTISSLQPEDFATYFCSQYNSGNTFGQGTKLEIK , thanks.
Solution: 7.17e-05

Problem: koff lookup needed for Hu89C10H8-6 (antibody, V domains shown, humanized) VH: EVQLVESGGGLVKPGGSLRLSCAASGFTFSNYWMTWVRQAPGKGLEWVASITNTGSSTFYPDSVKGRFTISRDNAKNSLYLQMNSLRAEDTAVYYCTRDTTIAPFDYWGQGTMVTVSS VL: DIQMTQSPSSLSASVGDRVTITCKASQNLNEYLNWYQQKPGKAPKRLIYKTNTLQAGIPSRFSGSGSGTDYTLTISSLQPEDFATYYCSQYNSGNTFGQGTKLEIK , thanks.
Solution: 8.56e-05
